# Test system: M1 central muscarinic cholinergic receptors
# procedureSummary: Antagonism of rotations induced by intrastriatal injection of pirenzepine in mice
# Type: in vivo, mice (Swiss, CD 1)
# experimentalConditions: i.p., 15 minutes before intrastriatal pirenzepine 1 μg
# Text: Pirenzepine (PZ) is a specific antagonist of the M1 central muscarinic cholinergic receptors. The intrastriatal injection of PZ into mice induces rotatory behavoir. The antagonism of this behavoir by the products according to the invention was studied. […] The number of contralateral rotations (rotations in the opposite direction to the side injected) was counted for three 2-minute periods after injection of the pirenzepine: 2nd to 4th, 8th to 10th and 13th to 15th minutes. […]
For each record, write down the corresponding Pirenzepine antagonism ED50 i.p..
Answers are plain numbers, in mg/kg.

>  <compound>
CCN(CC)CCCNc1nc(C)c(-c2ccccc2)s1

>  <unitAbbrev>
mg/kg

>  <Pirenzepine antagonism ED50 i.p.>
0.3

$$$$

Give Pirenzepine antagonism ED50 i.p. for all compounds that follow.
1. CCN(CC)CCNc1ncc(-c2ccccc2)s1.Cl.Cl
2. O=C1CCCN1CC#CCN1CCCC1 [Oxotremorine, reference compound]
3. c1ccc(-c2csc(NCCCN3CCOCC3)n2)cc1
4. Cc1sc(NCCCN)nc1-c1ccccc1.Cl.Cl
5. c1ccc2c(c1)CCCc1sc(NCCCN3CCOCC3)nc1-2
6. CCN(CC)CCCNc1ncc(-c2ccccc2)s1
7. c1ccc(-c2csc(NCCN3CCOCC3)n2)cc1

[1.5, 0.005, 8, 3, 3, 1, 8]

Give Pirenzepine antagonism ED50 i.p. for all compounds that follow.
1. CCN(CC)CCNc1nc2c(s1)CCc1ccccc1-2
2. c1ccc(-c2cnc(NCCN3CCOCC3)s2)cc1

[3, 3]

Give Pirenzepine antagonism ED50 i.p. for all compounds that follow.
1. CCN(CC)CCCNc1nc(-c2ccccc2)c(-c2ccccc2)s1
2. CCN(CC)CCCNc1nc2c(s1)CCCc1ccccc1-2
3. CCN(CC)CCNc1nc2c(s1)CCCc1ccccc1-2
4. CCN(CC)CCCNc1nc(-c2c(C)cc(C)cc2C)cs1
5. CCN(CC)CCCNc1nc(-c2ccccc2)cs1

1: 2; 2: 3; 3: 10; 4: 0.03; 5: 3

Give Pirenzepine antagonism ED50 i.p. for all compounds that follow.
1. CCN(CC)CCNc1nc(-c2ccccc2)cs1
2. CN(C)CCCNc1nc2c(s1)CCCc1ccccc1-2
3. CN(C)CCCNc1nc(-c2ccccc2)cs1

3
10
0.5

Give Pirenzepine antagonism ED50 i.p. for all compounds that follow.
1. CCN(CC)CCNc1nc(-c2c(C)cc(C)cc2C)cs1
2. CCN(CC)CCNc1nc2c(s1)CCCc1ccc([N+](=O)[O-])cc1-2.Cl.Cl
3. COC(=O)C1=CCCN(C)C1 [Arecoline, reference compound]

1: 1; 2: 15; 3: 1
